- System tested: UniProtKB Q07889
- Sequence (Q07889 whole entry): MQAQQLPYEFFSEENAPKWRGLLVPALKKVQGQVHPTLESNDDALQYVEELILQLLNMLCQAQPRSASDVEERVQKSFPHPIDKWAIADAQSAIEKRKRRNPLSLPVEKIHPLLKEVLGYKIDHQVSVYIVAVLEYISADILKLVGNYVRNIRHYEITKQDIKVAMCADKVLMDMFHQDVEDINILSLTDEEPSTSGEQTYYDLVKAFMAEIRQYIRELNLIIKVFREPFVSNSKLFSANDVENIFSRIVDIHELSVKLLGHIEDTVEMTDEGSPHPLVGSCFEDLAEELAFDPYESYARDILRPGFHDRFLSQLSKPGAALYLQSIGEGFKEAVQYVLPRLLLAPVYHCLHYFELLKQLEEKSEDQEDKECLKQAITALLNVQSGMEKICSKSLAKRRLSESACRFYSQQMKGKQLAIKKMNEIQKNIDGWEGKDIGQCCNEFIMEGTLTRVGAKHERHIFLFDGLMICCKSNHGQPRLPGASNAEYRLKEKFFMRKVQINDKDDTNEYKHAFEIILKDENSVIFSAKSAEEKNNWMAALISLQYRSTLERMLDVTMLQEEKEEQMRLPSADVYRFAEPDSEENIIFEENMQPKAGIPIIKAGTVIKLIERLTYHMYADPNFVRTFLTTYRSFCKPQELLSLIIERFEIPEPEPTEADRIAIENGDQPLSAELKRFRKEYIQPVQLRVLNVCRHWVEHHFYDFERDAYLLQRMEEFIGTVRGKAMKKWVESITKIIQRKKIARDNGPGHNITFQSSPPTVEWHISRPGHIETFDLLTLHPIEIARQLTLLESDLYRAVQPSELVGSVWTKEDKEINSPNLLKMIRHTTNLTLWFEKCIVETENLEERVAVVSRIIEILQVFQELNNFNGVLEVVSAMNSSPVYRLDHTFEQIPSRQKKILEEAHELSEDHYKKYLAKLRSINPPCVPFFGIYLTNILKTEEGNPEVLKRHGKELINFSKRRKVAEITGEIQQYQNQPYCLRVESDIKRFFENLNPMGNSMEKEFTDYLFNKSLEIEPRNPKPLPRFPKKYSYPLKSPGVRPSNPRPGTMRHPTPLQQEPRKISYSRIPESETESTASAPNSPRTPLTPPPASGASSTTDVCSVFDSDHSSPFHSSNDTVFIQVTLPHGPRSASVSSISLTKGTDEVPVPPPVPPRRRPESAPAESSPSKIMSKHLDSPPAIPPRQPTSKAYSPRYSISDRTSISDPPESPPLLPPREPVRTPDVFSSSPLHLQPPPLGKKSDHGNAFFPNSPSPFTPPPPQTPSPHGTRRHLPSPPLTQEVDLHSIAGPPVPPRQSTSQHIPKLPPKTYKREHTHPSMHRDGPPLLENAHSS
- Test: Activation of SOS1 in human HeLa cells assessed as effect on ERK1/2 phosphorylation at T202/Y204 residue by measuring […] at 6.3 uM after 30 mins by Western blot analysis relative to control
- Format: cell-based
Attribute measured: fold change (FC)

These recorded examples may help you get a feel for the data.
>>> print(df.to_string())
                                item_smiles     system_tested  reported_value
0  C[C@@H](Nc1nc(Nc2ccc(F)c(Cl)c2)nc2c(C3=CCNCC3)cccc12)C1CC1  UniProtKB Q07889            1.29
1  C[C@@H](Nc1nc(Nc2ccc(F)c(Cl)c2)nc2c(CN)cccc12)C1CC1  UniProtKB Q07889            0.94

P. C[C@@H](Nc1nc(Nc2ccc(F)c(Cl)c2)nc2c(CCN)cccc12)C1CC1
Q. C[C@@H](Nc1nc(Nc2ccc(F)c(Cl)c2)nc2ccccc12)C1CC1
Returns the identifier with the smallest measured fold change (FC) among P and Q . Pick one and reply with its label.
Q
(Q: 1.03, P: 1.82)
